Conditions: 26 °C
Task for the reader: assign each of the following compounds its reported solubility.
Give bare numbers, in mM.

Would you please look over these solved cases?
>>> print(df.to_string())
                                   compound  property_label  measured_result
0  CC(C(=O)O)C(C)(C)CCC(=O)O (centres undefined)      solubility             29.8
1                          O=C(S)CCCCC(=O)S      solubility             18.5

Would you be so kind as to report solubility for each listed record?
1. O=C(S)CCCCCCCCC(=O)S
2. CSCCC(C(=O)O)N(CCC#N)CCC#N (racemic)

1: 0.853; 2: 47

Hello, the source for this data is the OPERA property sets (Mansouri et al. 2018), in case you need it.
